# target-system: Abl wt (Homo sapiens, UniProt P00519)
# Sequence (P00519 whole entry): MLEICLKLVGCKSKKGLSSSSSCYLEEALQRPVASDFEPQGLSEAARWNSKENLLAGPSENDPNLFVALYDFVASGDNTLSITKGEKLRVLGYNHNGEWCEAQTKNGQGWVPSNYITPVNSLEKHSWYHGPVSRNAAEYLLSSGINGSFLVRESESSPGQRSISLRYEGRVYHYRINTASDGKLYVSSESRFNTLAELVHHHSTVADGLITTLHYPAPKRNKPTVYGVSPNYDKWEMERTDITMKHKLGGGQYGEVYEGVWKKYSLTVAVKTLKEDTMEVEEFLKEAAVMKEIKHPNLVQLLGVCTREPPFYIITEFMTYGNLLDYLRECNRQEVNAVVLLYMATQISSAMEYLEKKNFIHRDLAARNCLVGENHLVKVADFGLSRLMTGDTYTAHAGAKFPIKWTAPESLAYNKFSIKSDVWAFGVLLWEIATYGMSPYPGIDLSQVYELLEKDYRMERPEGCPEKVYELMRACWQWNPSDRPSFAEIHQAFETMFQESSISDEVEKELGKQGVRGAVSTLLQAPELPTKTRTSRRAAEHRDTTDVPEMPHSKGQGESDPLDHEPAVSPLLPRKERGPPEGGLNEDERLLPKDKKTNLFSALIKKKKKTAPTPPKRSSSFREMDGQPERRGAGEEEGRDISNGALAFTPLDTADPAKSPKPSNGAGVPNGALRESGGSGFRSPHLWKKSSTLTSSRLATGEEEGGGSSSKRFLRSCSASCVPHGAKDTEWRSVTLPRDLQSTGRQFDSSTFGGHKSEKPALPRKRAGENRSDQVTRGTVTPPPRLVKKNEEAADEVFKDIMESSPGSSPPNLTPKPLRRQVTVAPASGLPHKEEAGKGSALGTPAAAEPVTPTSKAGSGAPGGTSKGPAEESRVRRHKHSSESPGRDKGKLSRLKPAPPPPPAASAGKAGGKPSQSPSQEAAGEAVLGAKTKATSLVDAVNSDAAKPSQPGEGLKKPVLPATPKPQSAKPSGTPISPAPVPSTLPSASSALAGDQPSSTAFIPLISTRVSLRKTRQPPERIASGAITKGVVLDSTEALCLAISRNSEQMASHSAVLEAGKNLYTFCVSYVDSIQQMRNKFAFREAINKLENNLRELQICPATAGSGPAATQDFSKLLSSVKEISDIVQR
# test-description: SelectScreen Z'LYTE kinase assay, Abl wt
Parameter EC50: see the listing below.
Give just the numeric value; nM need not be written.

[[record]]
smiles_structure = "Cc1nc(Nc2ncc(C(=O)Nc3c(C)cccc3Cl)s2)cc(N2CCN(C(=O)CCOCCOCCOCCOCCOCCOCCNC(=O)C3CCN(c4ncc(C(=O)Nc5ccc(OC(F)(F)Cl)cc5)cc4-c4ccn[nH]4)CC3)CC2)n1"
target_system = "Abl wt (Homo sapiens, UniProt P00519)"
measurement_name = "EC50"
unit_tag = "nM"
meas_value = 1.81

[[record]]
smiles_structure = "Cc1ccc(C(=O)Nc2ccc(CN3CCN(C(=O)CCOCCOCCOCCOCCOCCOCCOCCOCCOCCOCCOCCOCCOCCOCCOCCOCCOCCOCCOCCOCCNC(=O)C4CCN(c5ncc(C(=O)Nc6ccc(OC(F)(F)Cl)cc6)cc5-c5ccn[nH]5)CC4)CC3)c(C(F)(F)F)c2)cc1C#Cc1cnc2cccnn12"
target_system = "Abl wt (Homo sapiens, UniProt P00519)"
measurement_name = "EC50"
unit_tag = "nM"
meas_value = 10.8

[[record]]
smiles_structure = "Cc1ccc(C(=O)Nc2ccc(CN3CCN(C(=O)CCOCCOCCOCCOCCOCCOCCOCCOCCOCCOCCOCCOCCNC(=O)C4CCN(c5ncc(C(=O)Nc6ccc(OC(F)(F)Cl)cc6)cc5-c5ccn[nH]5)CC4)CC3)c(C(F)(F)F)c2)cc1C#Cc1cnc2cccnn12"
target_system = "Abl wt (Homo sapiens, UniProt P00519)"
measurement_name = "EC50"
unit_tag = "nM"
meas_value = 319


Prompt: Recorded EC50 for `Cc1ccc(C(=O)Nc2ccc(CN3CCN(C(=O)CCOCCOCCOCCOCCOCCOCCOCCOCCOCCOCCOCCOCCOCCOCCOCCOCCNC(=O)C4CCN(c5ncc(C(=O)Nc6ccc(OC(F)(F)Cl)cc6)cc5-c5ccn[nH]5)CC4)CC3)c(C(F)(F)F)c2)cc1C#Cc1cnc2cccnn12` , please?
Completion: 82

Prompt: Return reported EC50; argument: `Cc1nc(Nc2ncc(C(=O)Nc3c(C)cccc3Cl)s2)cc(N2CCN(C(=O)CCOCCOCCOCCOCCOCCOCCOCCOCCNC(=O)C3CCN(c4ncc(C(=O)Nc5ccc(OC(F)(F)Cl)cc5)cc4-c4ccn[nH]4)CC3)CC2)n1`
Completion: 1.04
